- Tested on: HepG2 hepatocellular carcinoma
- PROTOCOL TEXT: Relative colony forming efficiency (Example 17, Table 13)
- Format: cell-based, human
- CONDITION INFO: averages of 2-8 determinations
- Experimental: Colony forming efficiency was determined using standard protocols. […] The test oligonucleotides were added to cell cultures in the presence of 2.5 μg of DOTMA/DOPE (Lipofectin; Life Technologies, Inc.) for four hours. The oligonucleotide was tested at 0.2 μM unless otherwise indicated. […] Surviving cells were visualized by methylene blue staining, and colonies were scored. In some experiments cell aliquots were removed from the culture and viability was determined using the trypan blue exclusion test. […]
Oligonucleotides are written 5' to 3', each unit as a sugar letter and its base; * is a phosphorothioate linkage, no mark a phosphodiester; rarer units and linkages stand in square brackets, end groups in braces. Plain capitals give the bases only. d = 2'-deoxy (DNA)
Reduced relative colony forming efficiency, HepG2 (% inhibition of colony forming ability): recorded values
RECORDED METRIC: Reduced relative colony forming efficiency, HepG2 (% inhibition of colony forming ability) (%)

{"SEQUENCE RECORD": "ACTGCCATTGTCACTGCTAT (antisense dA*dC*dT*dG*dC*dC*dA*dT*dT*dG*dT*dC*dA*dC*dT*dG*dC*dT*dA*dT) [AS-II-1581-20]", "NUMERIC READOUT": 93.07}
{"SEQUENCE RECORD": "AAAAATCAGCCAAGTAAGGG (antisense dA*dA*dA*dA*dA*dT*dC*dA*dG*dC*dC*dA*dA*dG*dT*dA*dA*dG*dG*dG) [AS-II-1381-20]", "NUMERIC READOUT": 62.34}
{"SEQUENCE RECORD": "CCCCTTCAGCGGCG (antisense dC*dC*dC*dC*dT*dT*dC*dA*dG*dC*dG*dG*dC*dG) [AS-II-253-14]", "NUMERIC READOUT": 42}
{"SEQUENCE RECORD": "CGGCGGCGTGTTCTCCTTGT (antisense dC*dG*dG*dC*dG*dG*dC*dG*dT*dG*dT*dT*dC*dT*dC*dC*dT*dT*dG*dT) [AS-II-280-20]", "NUMERIC READOUT": 97.14}

----------
- Test system: T-47D breast ductal carcinoma
- PROTOCOL TEXT: Relative colony forming efficiency (Example 17, Table 13)
- Format: cell-based, human
- CONDITION INFO: averages of 2-8 determinations
Oligonucleotides are written 5' to 3', each unit as a sugar letter and its base; * is a phosphorothioate linkage, no mark a phosphodiester; rarer units and linkages stand in square brackets, end groups in braces. Plain capitals give the bases only. d = 2'-deoxy (DNA)
Label Not satisfied if Reduced relative colony forming efficiency, T-47D (% inhibition of colony forming ability) falls below 30%; label Satisfied in every other case.

{"SUBSTANCE": "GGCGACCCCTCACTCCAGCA (antisense dG*dG*dC*dG*dA*dC*dC*dC*dC*dT*dC*dA*dC*dT*dC*dC*dA*dG*dC*dA) [AS-II-114-20]", "LABEL VALUE": "Satisfied"}
{"SUBSTANCE": "G*CG*AAG*CAG*AGC*GAG*CAGC*C (antisense dG*dCdG*dAdAdG*dCdAdG*dAdGdC*dGdAdG*dCdAdGdC*dC) [AS-II-163-20]", "LABEL VALUE": "Not satisfied"}
{"SUBSTANCE": "CCCAGTTCCAGCATAAGTCT (antisense dC*dC*dC*dA*dG*dT*dT*dC*dC*dA*dG*dC*dA*dT*dA*dA*dG*dT*dC*dT) [AS-II-1182-20]", "LABEL VALUE": "Satisfied"}
{"SUBSTANCE": "CCTGTCTTCTATCTGGCACC (antisense dC*dC*dT*dG*dT*dC*dT*dT*dC*dT*dA*dT*dC*dT*dG*dG*dC*dA*dC*dC) [AS-II-1989-20]", "LABEL VALUE": "Satisfied"}
{"SUBSTANCE": "CCCCTTCAGCGGCG (antisense dC*dC*dC*dC*dT*dT*dC*dA*dG*dC*dG*dG*dC*dG) [AS-II-253-14]", "LABEL VALUE": "Not satisfied"}
{"SUBSTANCE": "C*CCC*TCAC*TCC*AGC*AGC*CT*T (antisense dC*dCdCdC*dTdCdAdC*dTdCdC*dAdGdC*dAdGdC*dCdT*dT) [AS-II-109-20]", "LABEL VALUE": "Not satisfied"}
